assay: in vivo; details: mongrel, dog, iv, 4.3 ng/kg/min, [SEQ ID NO: 1] plasma concentration
Measurement Label: level at 2 h (ng/mL)
Field: numeric (ng/mL). Do not append units.

The substance H-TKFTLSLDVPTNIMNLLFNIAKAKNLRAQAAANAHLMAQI-NH2 [SEQ ID NO: 1] showed level at 2 h equal to 0.249

###

test: Human pharmacokinetics, healthy subjects, 24- or 72-hour infusion of 54 ng/kg/min; details: male, in vivo, 54 ng/kg, healthy subjects, 54 ng/kg/min, 24 Hours Male, mean, N = 7, read-out: CL (converted)
Measurement Label: clearance (mL/min/kg)
Report the value in mL/min/kg with no unit label.

Value of measured clearance for the entry H-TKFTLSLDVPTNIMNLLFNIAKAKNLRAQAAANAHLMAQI-NH2 [SEQ ID NO: 1] : 4.67
